Tested on: Renilla luciferase RNA
Protocol details: Barcoded aptazyme variant library screen: un-cleaved Renilla luciferase RNA by barcode read counts, HEK293-T cells
Format: cell-based
Measurement conditions: un-cleaved Renilla luciferase RNA, HEK293-T cells cultured with 1 mM theophylline (ON) over without theophylline (OFF); barcode read counts, triplicate
Outcome measure: Fold change in RNA expression between the ON state and the OFF state

Some solved entries appear below for comparison.
Molecule	Test value
RA013 (nucleic acid, expressed or natural sequence) DNA: GCGCGTCCTGGATTCGCGGAAACGCGTACATCCAGCTGACGAGTCCCAAATAGGACGAAACGAGAATACCAGCATCGTCTTGATGCCCTTGGAAGTCTCGC	3.3 fold
RA140 (nucleic acid, expressed or natural sequence) DNA: GCGCGTCCTGGATTCGCGGAAACGCGTACATCCAGCTGACGAGTCCGGAATACCAGCATCGTCTTGATGCCCTTGGAAGTCCGGCCCAAATAGGACGAAACGCGC	1.4 fold
RA234 (nucleic acid, expressed or natural sequence) DNA: GCGCGTCCTGGATTCGCGGAAACGCGTACATCCAGCTGACGAGTCCCAAATAGGACGAAACCGGAATACCAGCATCGTCTTGATGCCCTTGGAAGTCCGGCGC	1.1 fold
RA147 (nucleic acid, expressed or natural sequence) DNA: GCGCGTCCTGGATTCGCGGAAACGCGTACATCCAGCTGACGAGTAGAATACCAGCATCGTCTTGATGCCCTTGGAAGTCTCCCAAATAGGACGAAACGCGC	1.4 fold
RA207 (nucleic acid, expressed or natural sequence) DNA: GCGCGTCCTGGATTCGCGGAAACGCGTACATCCAGCTGACGAGTCCCAAGAGAATACCAGCATCGTCTTGATGCCCTTGGAAGTCTCATAGGACGAAACGCGC	1.2 fold
RA108 (nucleic acid, expressed or natural sequence) DNA: GCGCGTCCTGGATTCGCGGCCGGAATACCAGCATCGTCTTGATGCCCTTGGAAGTCCGGAAACGCGTACATCCAGCTGACGAGTCCCAAATAGGACGAAACGCGC	1.6 fold

Alright, here's another molecule for you.
[ask] Fold change in RNA expression between the ON state and the OFF state for RA223 (nucleic acid, expressed or natural sequence) DNA: GCGCGTCCTGCGAGAATACCAGCATCGTCTTGATGCCCTTGGAAGTCTCGGATTCGCGGAAACGCGTACATCCAGCTGACGAGTCCCAAATAGGACGAAACGCGC ?
[reply] 1.2 fold
